system: Proteus vulgaris; assay: Antibacterial activity against Proteus vulgaris at 100 ug/disk by agar plate disk diffusion method; format: functional; details: read-out: IZ
measure: zone of inhibition at 100 µg/disc (mm)
State the answer as a number, implicitly in mm.

Here are 4 compounds together with their reported answers.
O=C1c2ccccc2C(=O)N1Cn1c(=O)c(=O)[nH]c2ccccc21: 31
O=C(/C=C/c1ccccc1)n1c(=O)c(=O)[nH]c2ccccc21: 30
CN(C)c1ccc(/C=C/C(=O)n2c(=O)c(=O)[nH]c3ccccc32)cc1: 33
O=c1[nH]c2ccccc2n(Cn2cnc3ccccc32)c1=O: 32

zone of inhibition at 100 µg/disc for CC(=O)n1c(=O)c(=O)[nH]c2ccccc21 ?
26

zone of inhibition at 100 µg/disc for CC1=NNC(=O)C1Cn1c(=O)c(=O)[nH]c2ccccc21 (centres undefined) ?
32

zone of inhibition at 100 µg/disc for COc1cc(O)ccc1/C=C/C(=O)n1c(=O)c(=O)[nH]c2ccccc21 ?
18

zone of inhibition at 100 µg/disc for O=c1[nH]c2ccccc2n(Cn2nnc3ccccc32)c1=O ?
34

zone of inhibition at 100 µg/disc for O=c1[nH]c2ccccc2n(CN(c2ccccc2)c2ccccc2)c1=O ?
30
